- Target Of Assay: GluA2/3 (UniProt P19491+P42263)
- Construct: expressed in transfected cells; host or cells: HEK293T (HEK293) cells, transient co-transfection
- Sequence (P19491 22-883 isoform P19491-2 limits assumed): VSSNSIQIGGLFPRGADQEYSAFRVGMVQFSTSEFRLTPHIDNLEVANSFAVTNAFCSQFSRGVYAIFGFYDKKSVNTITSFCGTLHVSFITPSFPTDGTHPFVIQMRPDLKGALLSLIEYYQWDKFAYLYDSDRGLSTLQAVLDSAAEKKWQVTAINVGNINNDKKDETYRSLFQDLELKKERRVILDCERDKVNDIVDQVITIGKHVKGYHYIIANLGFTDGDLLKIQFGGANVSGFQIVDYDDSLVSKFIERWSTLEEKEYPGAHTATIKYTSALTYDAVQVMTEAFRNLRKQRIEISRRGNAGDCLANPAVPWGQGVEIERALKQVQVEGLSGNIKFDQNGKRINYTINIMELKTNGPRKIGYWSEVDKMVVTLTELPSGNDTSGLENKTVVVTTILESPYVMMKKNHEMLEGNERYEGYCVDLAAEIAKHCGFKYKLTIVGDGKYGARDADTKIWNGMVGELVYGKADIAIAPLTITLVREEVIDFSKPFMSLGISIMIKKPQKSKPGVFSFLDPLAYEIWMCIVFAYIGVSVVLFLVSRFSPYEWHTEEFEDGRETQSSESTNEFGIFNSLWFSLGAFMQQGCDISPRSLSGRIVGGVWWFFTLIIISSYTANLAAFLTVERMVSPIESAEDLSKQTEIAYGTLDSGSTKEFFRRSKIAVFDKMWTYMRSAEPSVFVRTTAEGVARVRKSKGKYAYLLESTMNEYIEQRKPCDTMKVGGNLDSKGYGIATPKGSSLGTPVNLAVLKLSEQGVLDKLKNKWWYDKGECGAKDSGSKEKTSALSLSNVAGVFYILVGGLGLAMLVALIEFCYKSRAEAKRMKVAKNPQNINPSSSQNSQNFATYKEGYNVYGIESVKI
- Sequence (P42263 29-894 isoform P42263-2 limits assumed): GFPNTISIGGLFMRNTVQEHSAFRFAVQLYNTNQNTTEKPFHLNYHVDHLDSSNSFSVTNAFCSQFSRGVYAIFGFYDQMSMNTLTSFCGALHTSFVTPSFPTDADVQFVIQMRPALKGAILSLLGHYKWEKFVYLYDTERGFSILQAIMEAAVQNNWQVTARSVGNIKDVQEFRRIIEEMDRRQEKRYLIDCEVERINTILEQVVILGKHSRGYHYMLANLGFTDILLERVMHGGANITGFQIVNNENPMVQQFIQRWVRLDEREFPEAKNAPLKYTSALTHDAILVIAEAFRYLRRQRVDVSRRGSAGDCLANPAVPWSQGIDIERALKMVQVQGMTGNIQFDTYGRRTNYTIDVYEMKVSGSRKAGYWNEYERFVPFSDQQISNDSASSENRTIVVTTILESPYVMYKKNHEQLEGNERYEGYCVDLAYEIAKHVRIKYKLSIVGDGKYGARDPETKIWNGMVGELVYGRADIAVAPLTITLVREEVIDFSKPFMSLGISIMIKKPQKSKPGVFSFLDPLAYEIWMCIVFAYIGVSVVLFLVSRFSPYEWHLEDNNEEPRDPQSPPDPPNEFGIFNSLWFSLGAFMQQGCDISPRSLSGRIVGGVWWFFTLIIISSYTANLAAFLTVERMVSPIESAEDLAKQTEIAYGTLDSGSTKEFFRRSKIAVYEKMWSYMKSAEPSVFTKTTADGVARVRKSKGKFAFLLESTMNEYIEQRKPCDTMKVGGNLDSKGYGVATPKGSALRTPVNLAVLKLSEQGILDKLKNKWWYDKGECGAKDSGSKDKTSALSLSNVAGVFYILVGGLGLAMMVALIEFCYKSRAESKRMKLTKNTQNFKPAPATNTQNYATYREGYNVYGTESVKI
- Protocol Text: Whole-cell patch clamp recordings of heteromeric GluA2/3 AMPA receptor currents and kinetics in transfected HEK293t cells
- Assay type: cell-based
- Condition Description: 10 mM glutamate for 1 ms, with compound, mean ± SD
Experimental Endpoint: t deact (weighted deactivation time constant) (ms)

Chemical String	Measurement
COc1cc(NC(=O)c2c(-c3c(Cl)cccc3Cl)noc2C)cc(OC)c1OC	5.7
COc1cc(NC(=O)c2c(-c3c(Cl)cccc3Cl)noc2C)cc(OC)c1	6.2
COc1ccc(NC(=O)c2c(-c3c(Cl)cccc3Cl)noc2C)c(OC)c1	6.2
